# EXPERIMENTAL_SYSTEM: Gcr1 (UniProt P07261)
# Sequence: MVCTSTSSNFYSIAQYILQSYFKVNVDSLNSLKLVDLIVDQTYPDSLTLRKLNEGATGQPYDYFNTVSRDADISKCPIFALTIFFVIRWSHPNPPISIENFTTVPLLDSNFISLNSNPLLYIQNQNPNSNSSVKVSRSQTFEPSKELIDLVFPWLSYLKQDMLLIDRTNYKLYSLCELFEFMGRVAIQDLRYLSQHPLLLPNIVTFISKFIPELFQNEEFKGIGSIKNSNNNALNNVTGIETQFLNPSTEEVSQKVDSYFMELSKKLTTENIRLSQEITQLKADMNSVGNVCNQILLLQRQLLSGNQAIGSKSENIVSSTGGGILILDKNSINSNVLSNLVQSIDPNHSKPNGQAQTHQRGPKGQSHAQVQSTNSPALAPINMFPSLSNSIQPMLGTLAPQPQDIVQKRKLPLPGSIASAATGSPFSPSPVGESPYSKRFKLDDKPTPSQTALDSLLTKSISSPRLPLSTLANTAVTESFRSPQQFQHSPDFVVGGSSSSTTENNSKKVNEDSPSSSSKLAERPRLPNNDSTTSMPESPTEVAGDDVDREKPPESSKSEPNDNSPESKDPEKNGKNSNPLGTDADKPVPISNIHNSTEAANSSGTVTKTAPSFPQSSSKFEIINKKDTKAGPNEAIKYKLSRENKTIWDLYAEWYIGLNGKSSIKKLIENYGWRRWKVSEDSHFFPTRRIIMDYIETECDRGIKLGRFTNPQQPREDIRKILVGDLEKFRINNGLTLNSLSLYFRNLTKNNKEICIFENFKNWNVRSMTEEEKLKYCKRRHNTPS
# TEST_METHOD_NOTES: PBM E-score (8-mer binding enrichment) (E-score (-0.5 to 0.5)); higher = stronger / more preferred TF binding
# EXPERIMENTAL_CONDITIONS: protein concentration: 100 nM; construct: GST-full length
In all, about 33,000 sequences were measured (“E-score (-0.5 to 0.5)”: median about -0.011, highest 2% from about 0.28 on). The sample holds the highest values, similar sequences and a random draw of the others, so the mix is not that of the screen.
METRIC: PBM E-score
Give only the figure.

Enquiry: Return the recorded PBM E-score value; entry: CGGACGTC
Return: 0.134

Enquiry: For the sequence CAAAGGAA , give its measured PBM E-score value.
Return: 0.104

Enquiry: Answer with the recorded PBM E-score for the sequence listed here: AGGCCGCC
Return: 0.292

Enquiry: Report measured PBM E-score; entry is ATTTTGGG
Return: 0.274

Enquiry: # return recorded PBM E-score for input GCGTTCAC
Return: 0.00885

Enquiry: Specify reported PBM E-score for the sequence shown: AAGGAAGG
Return: -0.0778

Enquiry: Supply recorded PBM E-score for AGGACGCG here.
Return: 0.283

Enquiry: # return recorded PBM E-score for entry CAACCGGA
Return: 0.206

Enquiry: Respond only with PBM E-score recorded for ATCTTCGC
Return: -0.0394

Enquiry: Indicate its recorded PBM E-score; the sequence in question is CGCGGCTC
Return: 0.117

Enquiry: # return recorded PBM E-score for input ATTAGACA
Return: 0.0379

Enquiry: Let me know recorded PBM E-score for GAGGAAGC , thanks.
Return: 0.391

Enquiry: Please indicate PBM E-score recorded for ATTAGACC
Return: -0.13

Enquiry: Give recorded PBM E-score. ACCGTTAA
Return: -0.119

Enquiry: Quote PBM E-score reported for CCTTCGTA please.
Return: 0.00994

Enquiry: Hello, please tell me recorded PBM E-score for this one: CAGGAAGA
Return: 0.0842

Enquiry: // Input: CAAGAAAA . Output its PBM E-score only.
Return: 0.248

Enquiry: Tell us which PBM E-score value is on record for ACTTTAAA
Return: 0.0642

Enquiry: Give reported PBM E-score value for GTTTGGGA
Return: -0.0986

Enquiry: Return PBM E-score (reported value) for this sequence: GCTTCGTA
Return: 0.329

Enquiry: Return PBM E-score for the following sequence: CGTAGAAG
Return: 0.275

Enquiry: Provide one value: measured PBM E-score of GAGCTAGC
Return: -0.122

Enquiry: Please give measured PBM E-score of the following entry: TACCAGAA
Return: 0.34

Enquiry: Assign PBM E-score to the following record: CTTATAAC
Return: -0.0336

Enquiry: Provide only the value of recorded PBM E-score for CGGACGCA
Return: 0.0459

Enquiry: Item ATCCACTA : provide PBM E-score
Return: 0.369

Enquiry: Retrieve PBM E-score measured for AGGACGAG and print it.
Return: -0.073

Enquiry: Please supply the value of reported PBM E-score for the item AACCGGAA
Return: 0.2

Enquiry: Consider the sequence ATCCACGA . State its measured PBM E-score.
Return: 0.0269

Enquiry: Look up and state reported PBM E-score for ACTTCTTA
Return: 0.104

Enquiry: For the sequence AACTTCGT , give its reported PBM E-score.
Return: 0.173

Enquiry: For the sequence GCTTCTCA , give its reported PBM E-score.
Return: 0.299

Enquiry: Tell me measured PBM E-score for AATAGAGA please.
Return: -0.0168

Enquiry: Give PBM E-score for the following sequence: ATCCACTG
Return: 0.0833

Enquiry: Using known records, supply PBM E-score for CGTATAAA
Return: 0.32

Enquiry: Provide only the value of recorded PBM E-score for CTCCACAA
Return: 0.0774

Enquiry: Annotate the sequence ACGACGCG with its measured PBM E-score.
Return: 0.0493

Enquiry: Annotate the sequence GCTTCTCC with its measured PBM E-score.
Return: 0.27

Enquiry: Look up and report measured PBM E-score for this entry: CCCCAGAG
Return: -0.0817

Enquiry: For the sequence CACCAGAA , give its reported PBM E-score.
Return: 0.15

Enquiry: Identify PBM E-score associated with the sequence ATCCACTC
Return: 0.318

Enquiry: Look up PBM E-score of CCTTCTCA and report it.
Return: -0.156

Enquiry: In one line, give reported PBM E-score of the entry AACCAGAA .
Return: 0.281

Enquiry: Determine its reported PBM E-score: ATTAGGCG
Return: 0.309

Enquiry: Supply measured PBM E-score of GTCCACAA in your reply.
Return: 0.224

Enquiry: Supply recorded PBM E-score for CCTATAGC here.
Return: -0.0383

Enquiry: Complete the entry with PBM E-score for AGGACGCA
Return: 0.0414

Enquiry: Identify the reported PBM E-score for the following entry. AGGACGCC
Return: 0.453

Enquiry: Output measured PBM E-score for this item: CAAGACAC
Return: 0.0836

Enquiry: Give the reported PBM E-score for this sequence. GGGTTCAA
Return: -0.101

Enquiry: Give PBM E-score for ATTAGACG
Return: 0.295

Enquiry: Determine its reported PBM E-score: AAGGAAGC
Return: 0.452

Enquiry: Please indicate PBM E-score recorded for CGTGCATC
Return: 0.00547

Enquiry: Dear colleague, please send me the reported PBM E-score for CTTATAAG when you can.
Return: -0.0238

Enquiry: Retrieve PBM E-score measured for AAAAGGAC and print it.
Return: 0.0425

Enquiry: Please report PBM E-score for the following sequence: CCATTCCC
Return: -0.0773

Enquiry: Fill in PBM E-score for record AGTAGAAG
Return: 0.327

Enquiry: Provide measured PBM E-score value, entry: ATCCCCGA
Return: 0.0266

Enquiry: Consider the sequence AATTTGGA and give its recorded PBM E-score.
Return: 0.263

Enquiry: Answer with reported PBM E-score of TAAAGGAA
Return: 0.314

Enquiry: Check the records and state PBM E-score for AACTTCCC
Return: -0.0101

Enquiry: Respond only with PBM E-score recorded for GCTTCTTA
Return: 0.338

Enquiry: Specify PBM E-score for AATAGAGT and stop.
Return: 0.0735

Enquiry: Read the entry CAGGAAGC and write its reported PBM E-score.
Return: 0.434

Enquiry: Given AAAAGGAA , respond with its PBM E-score.
Return: 0.361

Enquiry: Report PBM E-score, nothing else, for this sequence: CTTATAAA
Return: 0.291

Enquiry: Name the recorded PBM E-score of the sequence listed here: ATTAGGCA
Return: 0.00576

Enquiry: Dear colleague, please send me the reported PBM E-score for AGTAGAAC when you can.
Return: 0.0351

Enquiry: In one line, give reported PBM E-score of the entry CTCCACTA .
Return: 0.215

Enquiry: Tell us which PBM E-score value is on record for CCAGAATC
Return: 0.245

Enquiry: For the sequence AAAAGGAT , report PBM E-score.
Return: -0.00496

Enquiry: Please report the measured PBM E-score for CTCTAAGA
Return: -0.00019

Enquiry: Give the value of PBM E-score reported for the following: GTAGGATA
Return: -0.109

Enquiry: Answer with the recorded PBM E-score of GTCCACTA only.
Return: 0.334

Enquiry: Return the recorded PBM E-score value; entry: AATACCGA
Return: 0.0609

Enquiry: For the sequence AGGCCGCG , give its reported PBM E-score.
Return: 0.0497

Enquiry: Tell us which PBM E-score value is on record for ACTACGGG
Return: 0.00638

Enquiry: Supply recorded PBM E-score for AACCAGTA here.
Return: 0.315

Enquiry: Please indicate PBM E-score recorded for AACCAGAC
Return: -0.0315

Enquiry: Look up PBM E-score of CACGAAGA and report it.
Return: -0.098

Enquiry: Answer with the recorded PBM E-score for the sequence listed here: CTTTTTGA
Return: 0.115

Enquiry: In one line, give reported PBM E-score of the entry CCCGAATA .
Return: 0.334

Enquiry: Tell us which PBM E-score value is on record for AAGAGAGC
Return: -0.276

Enquiry: # return recorded PBM E-score for entry CCACCGCC
Return: -0.0958

Enquiry: Item ACTTCATG : provide PBM E-score
Return: 0.0318

Enquiry: For the sequence CGGACGCC , give its measured PBM E-score value.
Return: 0.416

Enquiry: Provide measured PBM E-score value, entry: ACCCAGGT
Return: 0.0419

Enquiry: Input CAAAGACC , output reported PBM E-score.
Return: 0.00996

Enquiry: In one line, give reported PBM E-score of the entry ACCGAATA .
Return: -0.0481

Enquiry: Report PBM E-score for GACTGTCA
Return: -0.154

Enquiry: For the sequence CTAACCAG , give its reported PBM E-score.
Return: 0.0668

Data provenance: the supplement of paper PMC3334620
